# System: Escherichia coli
# method.description: Toxicity against Escherichia coli BL21(DE3) assessed as effect on cell growth at 100 uM after 6 hrs
observed.property: Activity

Field: example entries. Status: answers known.
smiles_string=Nc1n[nH]c2c1c(Nc1ccc(F)cc1)nc1ccccc12 observed_property=Activity result=Non-Toxic
smiles_string=Nc1n[nH]c2c1c(Nc1ccc(Cl)cc1)nc1ccccc12 observed_property=Activity result=Toxic
smiles_string=Cc1ccc(Nc2nc3cc(F)ccc3c3[nH]nc(N)c23)cc1 observed_property=Activity result=Toxic
smiles_string=Nc1n[nH]c2c1c(Nc1ccc(Cl)cc1)nc1ccc(Cl)cc12 observed_property=Activity result=Toxic
smiles_string=Nc1n[nH]c2c1c(Nc1ccc(Cl)cc1)nc1ccc(Br)cc12 observed_property=Activity result=Toxic
smiles_string=Cc1ccc(Nc2nc3ccccc3c3[nH]nc(N)c23)cc1 observed_property=Activity result=Non-Toxic

Item "Cc1ccc(Nc2nc3ccc(Br)cc3c3[nH]nc(N)c23)cc1" with Escherichia coli - Activity?
Toxic

Any idea what Activity came out for "Cc1ccc(Nc2nc3ccc(Cl)cc3c3[nH]nc(N)c23)cc1" on Escherichia coli?
Toxic

---

The entries below are paired with their reported Activity.
# Tested on: Escherichia coli
# method.description: Inhibition of N-terminal His-tagged Escherichia coli beta-glucuronidase expressed in Escherichia coli BL21 (DE3) assessed as residual activity using pNPG as substrate at 10 uM preincubated for 30 mins followed by substrate addition measured after 1 hr relative to control
# number only, unit % dropped from output

compound=Nc1ccc(Nc2nc3ccccc3c3[nH]nc(N)c23)cc1 display_unit=% quantitative_readout=11.3
compound=COc1ccc(-c2nc3c4ccoc4c4ccccc4c3[nH]2)cc1 display_unit=% quantitative_readout=112
compound=Cc1ccc(Nc2nc3ccc(Cl)cc3c3[nH]nc(N)c23)cc1 display_unit=% quantitative_readout=6.13
compound=Cc1ccc(Nc2nc3ccc(Br)cc3c3[nH]nc(N)c23)cc1 display_unit=% quantitative_readout=12.1
compound=Cc1ccc(Nc2nc3cc(F)ccc3c3[nH]nc(N)c23)cc1 display_unit=% quantitative_readout=6.84

Can you look up the measured Activity of "Nc1n[nH]c2c1c(Nc1ccccc1O)nc1ccccc12" for me?
12

Param item = "Nc1n[nH]c2c1c(Nc1ccc(F)cc1)nc1ccccc12" ; retrieve measured Activity.
5.59

Need Activity of "Nc1n[nH]c2c1c(Nc1ccc(Cl)cc1)nc1ccccc12" , thanks.
4.57

What does the data say about its Activity? Entry: "Nc1n[nH]c2c1c(Nc1ccccc1Cl)nc1ccccc12"
10.3

Entry "NC(=S)N/N=C/c1ccc2cc(F)ccc2n1" has what Activity?
112

If you can, please state the reported Activity value of "Cc1cc2c(n1CCCN(C)CCCn1c(C)cc3c1C(=O)c1ccccc1C3=O)C(=O)c1ccccc1C2=O" .
73.5

For the compound shown here, COc1ccc(-c2cc3ccccc3nc2C2CC(c3cc(OC)c(OC)c(OC)c3)=NN2C(N)=S)cc1 (centres undefined) , give the reported Activity.
114

---

# target.under.test: beta-glucuronidase (Homo sapiens)
# Sequence (P08236 whole entry): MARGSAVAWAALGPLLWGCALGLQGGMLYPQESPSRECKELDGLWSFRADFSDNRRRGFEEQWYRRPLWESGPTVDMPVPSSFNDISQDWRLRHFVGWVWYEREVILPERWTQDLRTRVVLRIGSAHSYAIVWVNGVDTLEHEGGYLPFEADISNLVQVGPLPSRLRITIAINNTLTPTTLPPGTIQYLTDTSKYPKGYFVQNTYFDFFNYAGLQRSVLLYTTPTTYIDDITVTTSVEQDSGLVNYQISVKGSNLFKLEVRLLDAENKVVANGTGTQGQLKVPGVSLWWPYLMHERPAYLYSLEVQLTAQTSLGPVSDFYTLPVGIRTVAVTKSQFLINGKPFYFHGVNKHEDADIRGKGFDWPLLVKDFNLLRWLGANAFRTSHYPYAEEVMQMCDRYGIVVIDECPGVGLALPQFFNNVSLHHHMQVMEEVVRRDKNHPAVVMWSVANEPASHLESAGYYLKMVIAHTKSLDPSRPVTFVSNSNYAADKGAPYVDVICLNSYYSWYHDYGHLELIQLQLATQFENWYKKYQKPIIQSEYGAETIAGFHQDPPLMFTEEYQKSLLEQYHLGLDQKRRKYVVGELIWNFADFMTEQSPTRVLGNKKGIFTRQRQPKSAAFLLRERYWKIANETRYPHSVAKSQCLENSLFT
# method.description: Inhibition of N-terminal His-tagged human beta-glucuronidase expressed in Escherichia coli BL21 (DE3) assessed as residual activity using pNPG as substrate at 10 uM preincubated for 30 mins followed by substrate addition measured after 1 hr relative to control
# condition.context: probe pNPG, read-out: Activity
Reported activity at 1 h, 10 µM values follow for various compounds
The reply should be a number in %, with the unit left off.

The examples below pair each entry with its known result.
compound=Fc1ccc2nc(/C=N/NC3=NCCN3)ccc2c1 observed_property="activity at 1 h, 10 µM" quantitative_readout=99
compound="COc1cc(C(=O)C2CC2c2ccc3ccccc3n2)cc(OC)c1OC (centres undefined)" observed_property="activity at 1 h, 10 µM" quantitative_readout=85.4

Looking for the measured activity at 1 h, 10 µM of "Fc1ccc(-c2cc(-c3ccc4cc(F)ccc4n3)nn2-c2ccccc2)cc1" , can you help?
82.2

For the compound shown here, "Nc1n[nH]c2c1c(Nc1ccc(C(F)(F)F)cc1)nc1ccccc12" , give the reported activity at 1 h, 10 µM.
101

Query: activity at 1 h, 10 µM; subject: "CNC(=S)N/N=C1\C(=O)c2ccccc2-c2occc21"
86.8

Quick check: activity at 1 h, 10 µM of "Nc1n[nH]c2c1c(N)nc1ccccc12" ?
83.9

Look at this compound and give its reported activity at 1 h, 10 µM. "O=C1S/C(=C/c2ccc3cc(F)ccc3n2)C(=O)N1CCN1CCCC1"
102

Please report the recorded activity at 1 h, 10 µM for "CCOc1nc2ccccc2c2[nH]nc(N)c12" .
80.5

Find the recorded activity at 1 h, 10 µM belonging to "Nc1n[nH]c2c1c(Nc1ccc(Cl)cc1)nc1ccc(Cl)cc12" and report it.
88.2

---

# System: Escherichia coli
# method.description: Inhibition of N-terminal His-tagged Escherichia coli beta-glucuronidase expressed in Escherichia coli BL21 (DE3) assessed as residual activity using pNPG as substrate at 10 uM preincubated for 30 mins followed by substrate addition measured after 1 hr relative to control
observed.property: Activity (%)
Give the value in % but do not write % after it.

As a guide, the following entries are already answered.
compound=Fc1ccc2nc(/C=N/NC3=NCCN3)ccc2c1 display_unit=% quantitative_readout=112
compound=Nc1n[nH]c2c1c(Nc1cccc(Cl)c1)nc1ccccc12 display_unit=% quantitative_readout=14.9
compound=Cc1ccc(Nc2nc3c(C)cccc3c3[nH]nc(N)c23)cc1 display_unit=% quantitative_readout=6.8
compound=Nc1n[nH]c2c1c(Nc1ccc([N+](=O)[O-])cc1)nc1ccccc12 display_unit=% quantitative_readout=46.5
compound=O=C1S/C(=C/c2ccc3cc(F)ccc3n2)C(=O)N1CCN1CCCCC1 display_unit=% quantitative_readout=107
compound=CCOC(=O)CSc1nc2ccccc2c2sc(C(=O)OCC)c(N)c12 display_unit=% quantitative_readout=101

Give the measured Activity of "CCOc1nc2ccccc2c2[nH]nc(N)c12" .
102

# get_value(readout='Activity', item= "COc1ccc(-c2cc3cc(F)ccc3nc2/C=C2\SC(=O)NC2=O)cc1" )
99.1

So what's the measured Activity for this one? "O=C1NC(=O)/C(=C\c2ccc3cc(F)ccc3n2)S1"
115

Please report the recorded Activity for "O=C(O)CN1C(=O)S/C(=C/c2ccc3cc(F)ccc3n2)C1=O" .
109

GET /values?readout=Activity&item= COc1cc(C(=O)C2CC2c2ccc3ccccc3n2)cc(OC)c1OC (stereo unspecified)
112

---

# System: Escherichia coli
# method.description: Inhibition of N-terminal His-tagged Escherichia coli beta-glucuronidase expressed in Escherichia coli BL21 (DE3) assessed as residual activity using pNPG as substrate at 10 uM preincubated for 30 mins followed by substrate addition measured after 1 hr relative to control
observed.property: Activity

Please review the entries below; each comes with its answer.
smiles_string=Nc1n[nH]c2c1c(Nc1ccc(O)cc1)nc1ccccc12 target_under_test="Escherichia coli" observed_property=Activity result=8.67%
smiles_string=O=C(O)[C@@H](O)[C@H]1OC(=O)[C@H](O)[C@H]1O target_under_test="Escherichia coli" observed_property=Activity result=75.7%
smiles_string=CNC(=S)N/N=C1\C(=O)c2ccccc2-c2occc21 target_under_test="Escherichia coli" observed_property=Activity result=104%
smiles_string=Cc1ccc(Nc2nc3ccccc3c3[nH]nc(N)c23)cc1 target_under_test="Escherichia coli" observed_property=Activity result=4.78%
smiles_string=Cc1cccc2c1nc(Nc1ccc(Cl)cc1)c1c(N)n[nH]c12 target_under_test="Escherichia coli" observed_property=Activity result=9.04%
smiles_string=Nc1n[nH]c2c1c(Nc1cccc(O)c1)nc1ccccc12 target_under_test="Escherichia coli" observed_property=Activity result=6%

# get_value(readout='Activity', item= "Nc1n[nH]c2c1cnc1ccccc12" )
99.3%

// returns reported Activity for input "Fc1ccc(-c2cc(-c3ccc4cc(F)ccc4n3)n(-c3ccccc3)n2)cc1"
113%

Activity lookup needed for "Fc1ccc(-c2cc(-c3ccc4cc(F)ccc4n3)nn2-c2ccccc2)cc1" , thanks.
114%

Consider the molecule "Nc1n[nH]c2c1c(Nc1ccc(Cl)cc1)nc1cc(F)ccc12" and give its measured Activity.
6.78%

Query: Activity; subject: "Cc1ccccc1Nc1nc2ccccc2c2[nH]nc(N)c12"
14.8%
